// provenance: ChEMBL document CHEMBL1201862

Tested on: 786-0
measurement-notes: NCI tumour cell line growth inhibition, 48 h
Activity calls are given as the source filed them. No stated cut-off is given here; in the data, active = GI50 up to about 1.1 µM and inactive = higher.

| compound | GI50 |
| --- | --- |
| CN(C)c1ccc(/C=C2\N=C(NNc3ccccc3)NC2=O)cc1 | 17.9 µM (inactive) |
| Cc1cc(S(=O)(=O)Nc2nc(N)n(C)n2)c(S)cc1Cl | > 10 µM (inactive) |
| C=CCn1cc(C(=O)NC(=O)NCCCCCOC(=O)CCCCCCCCCCC(=O)OCCCCCNC(=O)NC(=O)c2cn(CC=C)c(=O)n(C)c2=O)c(=O)n(C)c1=O | > 100 µM (inactive) |
| N#Cc1nc(Sc2cnsn2)c(Sc2cnsn2)nc1C#N | 6.78 µM (inactive) |
| CCOC(=O)/C=C/CCC(C)(C)COC(C)=O | > 10 µM (inactive) |
| COC(=O)C(CC12CC3CC(CC(C3)C1)C2)NC(=O)C(N)CC(=O)O (stereo not given) | > 100 µM (inactive) |
| CNS(=O)(=O)NNS(=O)(=O)c1ccc2ccccc2c1 | > 100 µM (inactive) |
| COc1c(NC(C)=O)cc(C)cc1NC(C)=O | > 100 µM (inactive) |
| COC(=O)/C=C1/CCC2[C@@H](C(=O)CC3[C@]2(C)CCC[C@@]3(C)C(=O)OC)C1C (stereo not given in full) | 14.9 µM (inactive) |
| Cc1c(/C=N/NC(=O)c2ccccc2O)c(=O)n(-c2ccccc2)n1C | > 100 µM (inactive) |

---

Test system: SF-295
measurement-notes: NCI tumour cell line growth inhibition, 48 h
The source made the active and inactive calls. Rule as the data show it: active = GI50 up to about 1.1 µM and inactive = higher.

| item-smiles | GI50 |
| --- | --- |
| COc1c(NC(C)=O)cc(C)cc1NC(C)=O | > 100 µM (inactive) |
| O=c1[nH]c(C2CCCCC2)nc2cc(Cl)ccc12 | 92.7 µM (inactive) |
| COc1ccc(/C=C2\C[C@H]3[C@@H]4CCC5=C[C@@H](N6CCCC6)CC[C@]5(C)[C@H]4CC[C@]3(C)[C@H]2O)cc1 | 2.3 µM (inactive) |
| NN=C1/C(=C\c2ccccc2)CCC/C1=C/c1ccccc1 | 45.3 µM (inactive) |
| COc1cc(-c2ccc(/N=N/c3c(S(=O)(=O)O)cc4cc(S(=O)(=O)O)cc(N)c4c3O)c(OC)c2)ccc1/N=N/c1c(S(=O)(=O)O)cc2cc(S(=O)(=O)O)cc(N)c2c1O | > 100 µM (inactive) |

---

As shown below, each of these compounds has a reported GI50 value.
System: RXF 393
measurement-notes: NCI tumour cell line growth inhibition, 48 h
Calls of active or inactive are those of the source. No stated cut-off is given here; in the data, active = GI50 up to about 1.1 µM and inactive = higher.

| compound | GI50 |
| --- | --- |
| COC(=O)C1=C(c2ccc(OC)c(OC)c2)OC(c2ccc(OC)c(OC)c2)C1 (stereo not given) | 25.6 µM (inactive) |
| COC[C@@H](/N=C/N1CCc2cc(OC)c(OC)cc2C1)C(C)(C)C | > 100 µM (inactive) |
| O=C(CC1SC(Nc2ccccc2Cl)=NC1=O)Nc1ccc(Cl)cc1Cl (stereo not given) | > 100 µM (inactive) |
| N#CCc1nc(C#N)c(N)o1 | > 100 µM (inactive) |
| Cc1ccccc1-n1c(C)nc(-c2ccccc2)cc1=O | > 100 µM (inactive) |
| CC(=O)NC(CCCNC(=O)OCc1ccccc1)C(=O)O (stereo not given) | > 100 µM (inactive) |
| COc1ccc(OC)c2c1C(=O)C(Cl)=C(N1CCN(CCOCCO)CC1)C2=O | 19 µM (inactive) |
| Cc1ccc(C)c(NC(=O)CC2SC(Nc3ccccc3Cl)=NC2=O)c1 (stereo not given) | 90.8 µM (inactive) |
| CCCCCC/C=C\CCCCCCCCCc1cccc(O)c1C(=O)O [GINKGOLIC ACID 17:1] | > 100 µM (inactive) |
| CCCCCC(/C=C/[C@@H]1[C@@H](C(O)CCCCCC(=O)OC)C(=O)C[C@H]1O[Si](C)(C)C(C)(C)C)OCOCCOC (stereo not given in full) | 18.6 µM (inactive) |
